Assay system: human CB2R (Homo sapiens)
Construct: host or cells: CHO cells
Protocol: CB2R mediated modulation of cAMP synthesis
Assay type: cell-based
Criterion: EC50 strictly less than 30 nM. Met: met. Not met: not met.

Query: Could you please tell me whether EC50 recorded for CN(CC1CCOC1)C(C)(C)C(=O)Nc1cc(C(C)(C)CO)no1 (centres unmarked) is less than 30 nM?
Response: met

Query: Could you please tell me whether EC50 recorded for CN(C1CCOCC1)C(C)(C)C(=O)Nc1cc(C(C)(C)C2CCOCC2)no1 is less than 30 nM?
Response: not met

Query: Could you please tell me whether EC50 recorded for CC(C)(NCCCC(F)(F)F)C(=O)Nc1cc(C2(CO)CCC2)no1 is less than 30 nM?
Response: not met

Query: Could you please tell me whether EC50 recorded for CN(C(=O)CC1CCOCC1)C(C)(C)C(=O)Nc1cc(C(C)(C)CO)no1 is less than 30 nM?
Response: met

Query: Could you please tell me whether EC50 recorded for CN(C[C@@H]1COCCO1)C(C)(C)C(=O)Nc1cc(C(C)(C)CO)no1 is less than 30 nM?
Response: not met

* * *

Assay system: human CB2R (Homo sapiens, UniProt P34972)
Construct: host or cells: CHO cells
Sequence (P34972 whole entry): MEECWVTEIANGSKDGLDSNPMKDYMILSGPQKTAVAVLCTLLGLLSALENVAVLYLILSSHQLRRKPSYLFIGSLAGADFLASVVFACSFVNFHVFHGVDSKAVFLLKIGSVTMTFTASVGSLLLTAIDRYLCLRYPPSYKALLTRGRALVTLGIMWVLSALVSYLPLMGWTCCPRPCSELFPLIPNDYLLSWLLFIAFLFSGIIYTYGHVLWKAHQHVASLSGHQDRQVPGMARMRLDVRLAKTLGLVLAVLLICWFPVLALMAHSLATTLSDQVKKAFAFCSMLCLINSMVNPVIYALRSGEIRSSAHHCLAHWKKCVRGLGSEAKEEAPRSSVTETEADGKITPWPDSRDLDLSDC
Protocol: CB2R mediated modulation of cAMP synthesis
Assay type: cell-based
Details: read-out: CB2 EC50; CHO cells expressing human CB2R; inhibition of forskolin-stimulated cAMP synthesis
Description: B. CB2R Mediated Modulation of cAMP Synthesis: Compounds of the invention are evaluated for their CB2 agonist or inverse agonistic activity in accordance with the following experimental method. CHO cells expressing human CB2R (Euroscreen) are plated at a density of 5000 cells per well in 384 well plates and incubated overnight at 37° C. […] Cells are lysed and the cAMP concentration is measured using DiscoverX-XS cAMP kit, following the manufacturer's protocol. […]
Measure: pEC50
Keep it numeric: pEC50 is minus log10 of the concentration in mol/L.

Query: // fetch pEC50 given entry CC(C)(NC1CCC(NS(C)(=O)=O)CC1)C(=O)Nc1nnn(C(C)(C)C)n1 (stereo not shown)
Response: 7.48

* * *

Assay system: human CB1R (Homo sapiens, UniProt P21554)
Construct: host or cells: CHO cells
Sequence (P21554 whole entry): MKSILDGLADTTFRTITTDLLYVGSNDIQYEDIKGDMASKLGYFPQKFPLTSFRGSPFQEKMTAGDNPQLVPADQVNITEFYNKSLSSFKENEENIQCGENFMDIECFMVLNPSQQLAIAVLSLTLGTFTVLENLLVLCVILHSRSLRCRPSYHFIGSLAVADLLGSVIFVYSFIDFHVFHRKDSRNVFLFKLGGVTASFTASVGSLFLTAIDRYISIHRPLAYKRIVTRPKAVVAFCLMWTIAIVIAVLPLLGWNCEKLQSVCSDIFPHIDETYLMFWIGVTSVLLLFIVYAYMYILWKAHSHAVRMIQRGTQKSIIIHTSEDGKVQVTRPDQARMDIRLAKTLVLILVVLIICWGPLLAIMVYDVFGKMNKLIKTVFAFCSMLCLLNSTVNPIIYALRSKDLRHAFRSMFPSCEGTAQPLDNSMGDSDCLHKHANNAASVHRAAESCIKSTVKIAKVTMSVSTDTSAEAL
Protocol: CB1R mediated modulation of cAMP synthesis
Assay type: cell-based
Details: CHO cells expressing human CB1R; inhibition of forskolin-stimulated cAMP synthesis; read-out: CB1 EC50
Method: C. CB1R Mediated Modulation of cAMP Synthesis: Compounds of the invention are evaluated for their CB1 agonist or inverse agonistic activity in accordance with the following experimental method. CHO cells expressing human CB1R (Euroscreen) are plated at a density of 5000 cells per well in 384 well plates and incubated overnight at 37° C. […] Cells are lysed and the cAMP concentration is measured using DiscoverX-XS cAMP kit, following the manufacturer's protocol. […] EC50 of agonists are calculated as follows. […]
Form field: EC50 (one value per entry).

Worked set:
• CC(C)(NCCC1CCOCC1)C(=O)Nc1cc(C(C)(C)CO)no1 = > 50 µM
• CC[C@H](C)N(C)C(C)(C)C(=O)Nc1cc(C(C)(C)CO)no1 = > 50 µM
• CC(C)(NCC1CCOCC1)C(=O)Nc1cc(C(C)(C)COC2CCCCO2)no1 (centres unmarked) = > 50 µM

Query: // fetch EC50 given entry COCC(C)(C)c1cc(NC(=O)C(C)(C)NC2CCOCC2)on1
Response: > 20 µM

Query: // fetch EC50 given entry CC(C)(NC1CCN(S(C)(=O)=O)CC1)C(=O)Nc1cc(C(C)(C)CO)no1
Response: > 50 µM
